- Test system: HepG2
- method-notes: Tested in vitro for anticancer activity against HepG2 cells
- Type: functional, cell-based
- condition-info: Homo sapiens
measured-quantity: pIC50
Would you please state pIC50, meaning minus log10 of the concentration in mol/L, as a bare number?

stdin: Which measured pIC50 belongs to `O=c1[nH]c(=O)n([C@@H]2C=C[C@@H](CO)O2)cc1F` , tested on HepG2?
stdout: 4.43

stdin: Which measured pIC50 belongs to C[C@@H]1C[C@@H]([C@H](O)CC2CC(=O)NC(=O)C2)C(=O)[C@@H](C)C1 [CYCLOHEXIMIDE] , tested on HepG2?
stdout: 5.60

stdin: Which measured pIC50 belongs to O=c1[nH]cc(F)c(=O)[nH]1 [FLUOROURACIL] , tested on HepG2?
stdout: 4.42

----------
- System: MCF7
- method-notes: Tested in vitro for anticancer activity against MCF-7 cells
- Type: functional, cell-based
- condition-info: Homo sapiens
// reported pIC50 per item
Would you please state pIC50, meaning minus log10 of the concentration in mol/L, as a bare number?

Here's what some known entries look like.
O=c1[nH]cc(F)c(=O)[nH]1    4.39
O=c1[nH]c(=O)n([C@@H]2C=C[C@H](CO)O2)cc1F    4.80
CC(=O)Nc1nc(=O)n([C@H]2C=C[C@@H](CO)O2)cc1F    4.20

stdin: Which measured pIC50 belongs to O=C1NC(O)C(F)=CN1[C@H]1C=C[C@@H](CO)O1 (stereo not given in full) , tested on MCF7?
stdout: 4.27

----------
// reported pIC50 per item
- Test system: PC-3
- method-notes: Tested in vitro for anticancer activity against PC-3 cells
- Assay type: functional, cell-based
- condition-info: Homo sapiens
pIC50: −log10 of the molar value.

CC(=O)OC[C@@H]1C=C[C@H](n2cc(F)c(N)nc2=O)O1    < 4.00
Nc1nc(=O)n([C@H]2C=C[C@@H](CO)O2)cc1F [DEXELVUCITABINE]    < 5.00
C[C@@H]1C[C@@H]([C@H](O)CC2CC(=O)NC(=O)C2)C(=O)[C@@H](C)C1 [CYCLOHEXIMIDE]    5.46

In the following, a different compound is considered.
stdin: Recorded pIC50 for `Nc1nc(=O)n([C@H]2C=C[C@@H](CO)O2)cc1Br` , please?
stdout: < 4.00

----------
- Tested on: Human immunodeficiency virus 1
- method-notes: Tested in vitro for anti HIV-1 activity against PBM cells
- Assay type: functional, organism-based
- condition-info: Human immunodeficiency virus 1, PBMC
measured-quantity: log10(EC50) (log10 of the value in nM)
The figures below represent log10 of EC50, where EC50 is stated in nM.

stdin: Recorded log10(EC50) for Nc1nc(=O)n(C2C=CC(CO)C2)cc1F (stereo unspecified) , please?
stdout: 3.91

stdin: Recorded log10(EC50) for `Cc1cn([C@H]2C[C@H](N=[N+]=[N-])[C@@H](CO)O2)c(=O)[nH]c1=O` , please?
stdout: 0.30

stdin: Recorded log10(EC50) for `CC(=O)OC[C@@H]1C=C[C@H](n2cc(F)c(N)nc2=O)O1` , please?
stdout: 2.11

stdin: Recorded log10(EC50) for `CC(=O)Nc1nc(=O)n([C@H]2C=C[C@@H](CO)O2)cc1F` , please?
stdout: 3.00

stdin: Recorded log10(EC50) for `O=c1[nH]c(=O)n([C@@H]2C=C[C@@H](CO)O2)cc1F` , please?
stdout: 3.88

Taken from ChEMBL document CHEMBL1132699.
